TARGET UNDER TEST: PRC2/EZH2Y641N (Homo sapiens, UniProt Q15910, Y641N)
Construct: Synthetic cDNA encoding N-terminal 6His-tagged full length EZH2^Y641N; 6His (N); made in house; host or cells: Sf9 insect cells (baculovirus co-infection)
ASSAY COMMENT: Scintillation proximity assay (SPA) of H3K27 methylation
Assay type: biochemical
APPLIED CONDITIONS: 15' enzyme:inhibitor pre-incubation; read-out: SPA Mean IC50 (M) - 15' enzyme:inhibitor pre-incubation EZH2Y641N
PROPERTY: IC50 (M)
Supply the numeric figure in M, leaving out any unit text.

Cc1cc(C)c(CN2CCc3c(Cl)cc(-c4c(C)noc4C)c(Cl)c3C2=O)c(=O)[nH]1 :: 1.1e-08

Next compound, please.
Query: Provide measured IC50 value, entry: CCCc1cc(C)[nH]c(=O)c1CNC(=O)c1cc(-c2ccc(N3CCN(C(C)C)CC3)nc2)cc2c1cnn2C(C)C
Response: 3.6e-08

* * *

TARGET UNDER TEST: PRC2/EZH2Y641N (Homo sapiens, UniProt Q15910, Y641N)
Construct: Synthetic cDNA encoding N-terminal 6His-tagged full length EZH2^Y641N; 6His (N); made in house; host or cells: Sf9 insect cells (baculovirus co-infection)
ASSAY COMMENT: Scintillation proximity assay (SPA) of H3K27 methylation
Type: biochemical
APPLIED CONDITIONS: 0' enzyme:inhibitor pre-incubation; read-out: SPA Mean IC50 (M) - 0' enzyme:inhibitor pre-incubation hEZH2Y641N
# IC50 annotations
Supply the numeric figure in M, leaving out any unit text.

CCCc1cc(C)[nH]c(=O)c1CNC(=O)c1cc(-c2ccc(N3CCN(C(C)C)CC3)nc2)cc2c1cnn2C(C)C [Compound 9, UNC1999] :: 3.8e-08

Query: Provide measured IC50 value, entry: Cc1cc(C)c(CN2CCc3c(Cl)cc(-c4c(C)noc4C)c(Cl)c3C2=O)c(=O)[nH]1 [Compound 14]
Response: 1.5e-08

* * *

TARGET UNDER TEST: PRC2/EZH1 (Homo sapiens)
Construct: N-terminal 6His-tagged full length EZH2^Y641N, EZH2^Y111L, EZH2^Y111D, EZH2^Y641N, Y661DEZH2, EZH1; 6His (N); made in house; host or cells: Sf9 insect cells (baculovirus co-infection)
ASSAY COMMENT: Scintillation proximity assay (SPA) of H3K27 methylation
Type: biochemical
APPLIED CONDITIONS: 15' enzyme:inhibitor pre-incubation; read-out: SPA Mean IC50 (M) - 15' enzyme:inhibitor pre-incubation EZH1
PROPERTY: IC50 (M)
Supply the numeric figure in M, leaving out any unit text.

Cc1cc(C)c(CN2CCc3c(Cl)cc(-c4c(C)noc4C)c(Cl)c3C2=O)c(=O)[nH]1 :: 2.9e-07

Next molecule, please.
Query: State IC50 (PRC2/EZH1 (Homo sapiens)) of CC[C@H](C)n1cc(C)c2c(C(=O)NCc3c(C)cc(C)[nH]c3=O)cc(-c3ccc(N4CCNCC4)nc3)cc21 .
Response: 4.4e-07

* * *

System: H3K27me3 mark in MDA-MB-231 cells
ASSAY COMMENT: High content analysis (HCA) of cellular H3K27me3 mark, washout format
Assay type: cell-based
APPLIED CONDITIONS: Homo sapiens, MDA-MB-231, H3K27 methylation HCA; incubation time 0.5 h, washout time 71.5 h; read-out: Mean IC50
PROPERTY: IC50

Query: Provide measured IC50 value, entry: CCS(=O)(=O)N1CCC([C@@H](C)n2c(C)c(C(=O)NCc3c(OC)cc(C)[nH]c3=O)c3ccccc32)CC1 [Compound 10, CPI-169]
Response: > 12 µM

* * *

TARGET UNDER TEST: PRC2/EZH2+/+ (Homo sapiens, UniProt Q15910)
Construct: purchased Active Motif
ASSAY COMMENT: Equilibrium probe competition assay (ePCA), TR-FRET
Type: binding
APPLIED CONDITIONS: wild type EZH2, absence of H3K27me3 peptide; read-out: Ki
PROPERTY: Ki (nM)
Supply the numeric figure in nM, leaving out any unit text.

Query: Provide measured Ki value, entry: CCCc1cc(C)[nH]c(=O)c1CNC(=O)c1cc(-c2ccc(N3CCN(C(C)C)CC3)nc2)cc2c1cnn2C(C)C
Response: 2.8

* * *

Tested on: H3K27me3 mark in MDA-MB-231 cells
ASSAY COMMENT: High content analysis (HCA) of cellular H3K27me3 mark, washout format
Format: cell-based
APPLIED CONDITIONS: Homo sapiens, MDA-MB-231, read-out: Mean IC50 (M), H3K27 methylation HCA; incubation time 0.5 h, washout time 71.5 h
PROPERTY: IC50 (M)
Supply the numeric figure in M, leaving out any unit text.

Query: Provide measured IC50 value, entry: Cc1cc(C)c(CNC(=O)c2cc(Cl)c3c(c2C)O[C@@](C)([C@H]2CC[C@H](N(C)C)CC2)O3)c(=O)[nH]1 [Compound 31, DS-3201]
Response: 6.9e-07

Query: Provide measured IC50 value, entry: Cc1cc(C)c(CN2CCc3c(Cl)cc(-c4c(C)noc4C)c(Cl)c3C2=O)c(=O)[nH]1 [Compound 14]
Response: 7e-06

* * *

TARGET UNDER TEST: PRC2/EZH2 Y111L (Homo sapiens, UniProt Q15910, Y111L)
Construct: N-terminal 6His-tagged full length EZH2^Y641N, EZH2^Y111L; 6His (N); made in house; host or cells: Sf9 insect cells (baculovirus co-infection)
ASSAY COMMENT: Scintillation proximity assay (SPA) of H3K27 methylation
Assay type: biochemical
APPLIED CONDITIONS: 15' enzyme:inhibitor pre-incubation; read-out: SPA Mean IC50 (M) - 15' enzyme:inhibitor pre-incubation EZH2 Y111L
PROPERTY: IC50 (M)
Supply the numeric figure in M, leaving out any unit text.

CCCc1cc(C)[nH]c(=O)c1CNC(=O)c1cc(-c2ccc(N3CCN(C(C)C)CC3)nc2)cc2c1cnn2C(C)C :: 2.2e-08

Next molecule, please.
Query: Provide measured IC50 value, entry: Cc1cc(C)c(CN2CCc3c(Cl)cc(-c4c(C)noc4C)c(Cl)c3C2=O)c(=O)[nH]1
Response: 9.6e-07

* * *

# Ki annotations
TARGET UNDER TEST: PRC2/EZH2+/+ (Homo sapiens, UniProt Q15910)
Construct: purchased Active Motif
ASSAY COMMENT: Equilibrium probe competition assay (ePCA), TR-FRET
Type: binding
APPLIED CONDITIONS: EZH2+/+ (- H3K27me3); sheet ePCA&kPCA RT; read-out: Equilibrium Ki
Supply the numeric figure in nM, leaving out any unit text.

CCCc1cc(C)[nH]c(=O)c1CNC(=O)c1cc(-c2ccc(N3CCN(C(C)C)CC3)nc2)cc2c1cnn2C(C)C [Compound 9, UNC1999] :: 2.83

Next compound, please.
Query: Provide measured Ki value, entry: Cc1cc(C)c(CN2CCc3c(Cl)cc(-c4c(C)noc4C)c(Cl)c3C2=O)c(=O)[nH]1 [Compound 14]
Response: 1.47

* * *

# IC50 annotations
TARGET UNDER TEST: PRC2/EZH2Y641N+Y661D (Homo sapiens, UniProt Q15910, Y641N/Y661D)
Construct: N-terminal 6His-tagged full length EZH2^Y641N, EZH2^Y111L, EZH2^Y111D, EZH2^Y641N, Y661DEZH2, EZH1; 6His (N); made in house; host or cells: Sf9 insect cells (baculovirus co-infection)
ASSAY COMMENT: Scintillation proximity assay (SPA) of H3K27 methylation
Format: biochemical
APPLIED CONDITIONS: 15' enzyme:inhibitor pre-incubation; read-out: SPA Mean IC50 (M) - 15' enzyme:inhibitor pre-incubation EZH2Y641N+Y661D
Supply the numeric figure in M, leaving out any unit text.

Cc1cc(C)c(CN2CCc3c(Cl)cc(-c4c(C)noc4C)c(Cl)c3C2=O)c(=O)[nH]1 :: 1.1e-06

Next compound, please.
Query: Provide measured IC50 value, entry: CCCc1cc(C)[nH]c(=O)c1CNC(=O)c1cc(-c2ccc(N3CCN(C(C)C)CC3)nc2)cc2c1cnn2C(C)C
Response: 2.4e-06

* * *

Test system: H3K27me3 mark in MDA-MB-231 cells
ASSAY COMMENT: High content analysis (HCA) of cellular H3K27me3 mark, washout format
Assay type: cell-based
APPLIED CONDITIONS: H3K27 methylation HCA; incubation time 1 h, washout time 71 h; read-out: Mean IC50
PROPERTY: pIC50
Please keep in mind that pIC50 is minus log10 of the molar concentration; only the number is needed.

Query: Provide measured pIC50 value, entry: CC[C@H](C)n1cc(C)c2c(C(=O)NCc3c(C)cc(C)[nH]c3=O)cc(-c3ccc(N4CCNCC4)nc3)cc21 [Compound 4, GSK126]
Response: 5.54

Data origin: paper PMC10799085
